normalized growth listing for selected molecules.
Assay: chemical genetic growth profiling, strain panel (AID 1159580);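 further: tested at 20 µM; growth read once vehicle control cultures reached saturation at 30 °C; 1 = growth at the plate median or of vehicle wells; lower values mean less growth of the strain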
Details: S. cerevisiae deletion strains, growth OD, locus YER133W, strain GLC7, active compounds read low
Hit rate of the full screen: of about 5,500 compounds, about 2,000 (36%) were called active. Roughly 18% stayed inconclusive and do not appear here. The list shows a part of the results.

| molecule | normalized growth |
| --- | --- |
| O=C(Nc1ccc(F)cc1F)c1cc(Cl)c(-n2cccc2)c(Cl)c1 | 0.898 |
| CSc1sc(C(=O)Sc2ccccc2)cc1S(=O)(=O)C(C)C | 0.958 |
| Clc1ccc(CN2CCN(c3cccc4[nH]ccc34)CC2)cc1Cl | 0.977 |
| CSc1n[nH]c(-c2cc(C(C)(C)C)oc2C)c1C#N | 0.867 |
| COC(=O)C1=C(Nc2ccccc2NS(=O)(=O)c2ccc(C(F)(F)F)cc2Cl)CSC1 | 0.966 |
| CC(C)(C)c1cc(C(=O)Nc2ccc3c(c2)OCO3)n(Cc2ccc(F)cc2)n1 | 0.955 |
| COC(=O)c1sccc1NS(=O)(=O)c1cc(Cl)cc(Cl)c1 | 0.987 |
| N#CSCC(=O)c1ccccc1 | 0.12 |
| O=[N+]([O-])c1cccc(C2CC(c3ccccc3)=Nc3ccccc3S2)c1 (centres undefined) | 0.96 |

====

Experiment: chemical genetic growth profiling, strain panel (AID 1159580);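 further: tested at 20 µM; growth read once vehicle control cultures reached saturation at 30 °C; 1 = growth at the plate median or of vehicle wells; lower values mean less growth of the strain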
Details: S. cerevisiae deletion strains, growth OD, locus YPR163C, strain tif3, active compounds read low
The campaign covered roughly 5,500 compounds. About 2,000 (36%) were called active. Inconclusive results (about 18%) are left out. This is one part of the list.
Entries and their normalized growth values follow.
readout: normalized growth

| molecule | assayResult |
| --- | --- |
| CC(C)CCCC(C)[C@H]1CCC2C3CC=C4C[C@@H](O)CC[C@]4(C)C3CC[C@@]21C (stereo not given in full) | 0.988 |
| NCC(=O)c1ccccc1 | 0.99 |
| NCC(N)C(=O)c1ccccc1 (stereo not given) | 0.995 |
| CC(C)CCCC(C)C1CCC2C3C[C@@H](O)[C@@]4(O)C[C@@H](O)CC[C@]4(C)C3CC[C@]12C (stereo not given in full) | 1.01 |
| CN[C@@H]1[C@H](O)[C@H](NC)[C@H]2O[C@@]3(O)C(=O)C[C@@H](C)O[C@H]3O[C@@H]2[C@H]1O | 1.02 |

====

Recorded normalized growth, one value per entry.
Test: chemical genetic growth profiling, strain panel (AID 1159580);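 further: tested at 20 µM; growth read once vehicle control cultures reached saturation at 30 °C; 1 = growth at the plate median or of vehicle wells; lower values mean less growth of the strain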
Conditions: S. cerevisiae deletion strains, growth OD, locus YOR144C, strain elg1, active compounds read low
About 2,000 (36%) of roughly 5,500 compounds were called active. Inconclusive results (about 18%) are left out. The list shows a part of the results.
readout: normalized growth

| compound | assayResult |
| --- | --- |
| CN(C)CCCN1c2ccccc2CCc2ccccc21 | 0.992 |
| CCN(CC)CCOC(=O)C(c1ccccc1)C1CCCCC1 (configuration not stated) | 0.981 |
| CC[N+](C)(C)c1cccc(O)c1 | 0.979 |
| COc1c(C)c2c(c(C)c1Cl)Oc1c(Cl)c(OC)c(Cl)c(C)c1C(=O)O2 | 1.01 |
| O=C(O)c1cc(O)c2c(c1)[C@@H]([C@H]1c3cc(C(=O)O)cc(O)c3C(=O)c3c(O[C@H]4O[C@H](CO)[C@@H](O)[C@H](O)[C@H]4O)cccc31)c1cccc(O[C@H]3O[C@H](CO)[C@@H](O)[C@H](O)[C@H]3O)c1C2=O | 1.01 |
| CC12CCC(O)CC1CCC1C2[C@H](O)CC2(C)C(C3=CC(=O)OC3)CCC12O (some centres not stated) | 0.998 |
| CN(C)CCCN1c2ccccc2CCc2ccc(Cl)cc21 | 0.991 |
| NS(=O)(=O)c1cc2c(cc1Cl)NC(CSCc1ccccc1)=NS2(=O)=O | 0.987 |
| O=C(O)C1=CCCNC1 | 0.988 |
| CC(C)=CCCC(C)C1CC[C@@]2(C)C3=C(CC[C@]12C)C1(C)CC[C@H](O)C(C)(C)C1CC3 (some centres not stated) | 1.02 |
| CCOC(=O)[C@H](CCc1ccccc1)N[C@@H](C)C(=O)N1CCC[C@H]1C(=O)O | 1.01 |
| CN(C)CCCN1c2ccccc2Sc2ccc(C(F)(F)F)cc21 | 0.974 |
| CN(C)C1C(=O)C(C(N)=O)=C(O)C2(O)C(=O)C3=C(O)c4c(O)ccc(Cl)c4C(C)(O)C3CC12 (configuration not stated) | 0.985 |
| CC1(C)CC2C1CC[C@]1(CBr)CCC3C(CC(=O)O)C(=O)O[C@@]32C1 (some centres not stated) | 0.988 |
| Cc1cc(=O)[nH]c(=S)[nH]1 | 1 |
| NC(Cn1ccc(=O)c(O)c1)C(=O)O (configuration not stated) | 0.985 |
| CC(C)=CC1C(C(=O)O)C1(C)C (configuration not stated) | 1 |
| Oc1cccc(O)c1 | 0.98 |
| COc1ccc(C2Sc3ccccc3N(CCN(C)C)C(=O)C2OC(C)=O)cc1 (configuration not stated) | 1.04 |
| C=C1c2cccc(O)c2C(O)=C2C(=O)[C@]3(O)C(O)=C(C(N)=O)C(=O)[C@@H](N(C)C)[C@@H]3[C@@H](O)[C@H]12 | 1 |
| C=C(C)C1(O)OC(=O)C=C1OC (configuration not stated) | 0.981 |
| CNCCCC12CCC(c3ccccc31)c1ccccc12 | 0.997 |
| CN[C@@H]1[C@H](O)[C@H](NC)[C@H]2O[C@@]3(O)C(=O)C[C@@H](C)O[C@H]3O[C@@H]2[C@H]1O | 1.02 |
| C=C1c2c(Cl)ccc(O)c2C(O)=C2C(=O)[C@]3(O)C(O)=C(C(N)=O)C(=O)[C@@H](N(C)C)[C@@H]3[C@@H](O)[C@H]12 | 0.984 |
| Cc1cc(=O)oc2cc(O)c(O)cc12 | 1 |
| CC(C)c1ccc2c(c1)CCC1C(C)(C(N)=O)CCCC21C (configuration not stated) | 0.956 |
| CN(C)c1ccc(O)c2c1C[C@H]1C[C@H]3[C@H](N(C)C)C(=O)C(C(N)=O)=C(O)[C@@]3(O)C(=O)C1=C2O | 0.996 |
| CC12CCC3C(CC3(C)C)C(C)(CCC1=O)O2 (configuration not stated) | 1.02 |
| CC(=O)Oc1c(Cl)c(C)c2c(c1Cl)OC(=O)c1c(C)c(Cl)c(OC(C)=O)c(Cl)c1O2 | 0.903 |
| COc1ccc2cc(CCC(C)=O)ccc2c1 | 0.951 |
| CC(C)c1ccc2c(c1)CCC1[C@](C)(CN)CCC[C@]21C (some centres not stated) | 0.372 |
| COC(=O)c1c(C)c2c(c(C)c1O)OC(=O)c1c(C)c(Cl)c(O)c(Cl)c1O2 | 1.02 |
| CC12CCC(=O)C=C1CCC1C2[C@@H](O)CC2(C)C1CC[C@]2(O)C(=O)COP(=O)(O)O (some centres not stated) | 1 |
| OC[C@H]1O[C@@H](O[C@H]2[C@H](O)[C@@H](O)[C@@H](O)O[C@@H]2CO)[C@H](O)[C@@H](O)[C@@H]1O | 1 |
| CC(Cc1cccc(C(F)(F)F)c1)NCCOC(=O)c1ccccc1 (configuration not stated) | 1.02 |
| N=C(N)N | 0.977 |
| CCCc1cc(=O)[nH]c(=S)[nH]1 | 0.999 |
| C/C1=C\CC(C)(C)/C=C/CC2(C)OC2CC1 (configuration not stated) | 1 |
| OC[C@H]1O[C@@](CO)(O[C@@H]2O[C@H](CO)[C@@H](O)[C@H](O)[C@H]2O)[C@@H](O[C@@H]2O[C@H](CO)[C@@H](O)[C@H](O)[C@H]2O)[C@@H]1O | 1.02 |
| C=C(C)C1CCC(C)(O)C2CC3OC3(C)C2C1 (configuration not stated) | 1.01 |
| NNCc1cccc(O)c1 | 0.994 |
| NCCCCCCNS(=O)(=O)c1cccc2c(Cl)cccc12 | 0.993 |

====

Assay: chemical genetic growth profiling, strain panel (AID 1159580);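 further: tested at 20 µM; growth read once vehicle control cultures reached saturation at 30 °C; 1 = growth at the plate median or of vehicle wells; lower values mean less growth of the strain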
Conditions: S. cerevisiae deletion strains, growth OD, locus YMR307W, strain GAS1, active compounds read low
The campaign covered roughly 5,500 compounds. About 2,000 (36%) were called active. Inconclusive results (about 18%) are left out. Some of the results follow.
Catalogue of normalized growth values
readout: normalized growth

| compound | assayResult |
| --- | --- |
| CC(C)CCCC(C)C1CCC2C3=CC[C@H]4C[C@@H](O)CC[C@]4(C)C3CC[C@@]21C (some centres undefined) | 1.05 |
| CC12CCC3C(CC3(C)C)C(C)(CCC1=O)O2 (centres undefined) | 1.02 |
| NC(Cn1ccc(=O)c(O)c1)C(=O)O (centres undefined) | 1.02 |
| C=C1c2c(Cl)ccc(O)c2C(O)=C2C(=O)[C@]3(O)C(O)=C(C(N)=O)C(=O)[C@@H](N(C)C)[C@@H]3[C@@H](O)[C@H]12 | 0.887 |
| CC(C)CCCC(C)C1CCC2C3C[C@@H](O)[C@@]4(O)C[C@@H](O)CC[C@]4(C)C3CC[C@]12C (some centres undefined) | 1.06 |
| c1ccc(-c2csc(-c3ccncc3)n2)cc1 | 0.737 |
| Cc1cn[nH]c1 | 1 |
| CN(C)C1C(=O)C(C(N)=O)=C(O)C2(O)C(=O)C3=C(O)c4c(O)ccc(Cl)c4C(O)C3CC12 (centres undefined) | 0.978 |
| COc1c(Br)cc(/C(N)=N\OC(=O)c2c(-c3c(Cl)cccc3Cl)noc2C)cc1Br | 1.05 |
| COC(=O)c1c(C)c2c(c(C)c1O)OC(=O)c1c(C)c(Cl)c(O)c(Cl)c1O2 | 0.545 |
| CCN(CC)CCOC(=O)C(c1ccccc1)C1CCCCC1 (centres undefined) | 1.23 |
| CN(C)[C@@H]1C(=O)C(C(N)=O)=C(O)[C@@]2(O)C(=O)C3=C(O)c4c(O)ccc(Cl)c4[C@@H](O)[C@H]3C[C@@H]12 | 1.02 |
| CC(C)CCCC(C)[C@H]1CCC2C3CC[C@@H]4C[C@H](O)CC[C@]4(C)C3CC[C@@]21C (some centres undefined) | 1.07 |
| CC1=CC(=O)c2ccccc2C1=O | 0.118 |
| C=C1c2cccc(O)c2C(O)=C2C(=O)[C@]3(O)C(O)=C(C(N)=O)C(=O)[C@@H](N(C)C)[C@@H]3[C@@H](O)[C@H]12 | 1.02 |
| Fc1cc(F)cc(COc2cc(Cl)cc(Cl)c2)c1 | 0.739 |
| C=C1C[C@]23C[C@@]1(O)CC[C@H]2[C@@]12C=C[C@H](O)[C@@](C)(C(=O)O1)[C@H]2[C@@H]3C(=O)O | 0.969 |
| O=C(O)C1C2CCC1C(O)C2 (centres undefined) | 1.01 |
| NCCCCCCNS(=O)(=O)c1cccc2c(Cl)cccc12 | 0.942 |
| CC12CCC(=O)C=C1CCC1C2[C@@H](O)CC2(C)C1CC[C@]2(O)C(=O)COP(=O)(O)O (some centres undefined) | 0.988 |
| CC(C)CCCC(C)C1CCC2C3CC(=O)[C@H]4C[C@@H](O)CC[C@]4(C)C3CC[C@]12C (some centres undefined) | 1.12 |
| CC1(C)CCC=[N+]1[O-] | 1.01 |
| CO[C@H]1CC(O[C@@H]2/C(C)=C/C[C@@H]3C[C@@H](C[C@]4(CC[C@H](C)[C@@H](C5CCCCC5)O4)O3)OC(=O)[C@@H]3C=C(C)/C(=N\O)[C@H]4OC/C(=C\C=C\[C@@H]2C)[C@]43O)O[C@@H](C)C1O (some centres undefined) | 0.911 |
| CC(=O)Oc1c(Cl)c(C)c2c(c1Cl)OC(=O)c1c(C)c(Cl)c(OC(C)=O)c(Cl)c1O2 | 0.613 |
| C[C@H]1c2cccc(O)c2C(O)=C2C(=O)[C@]3(O)C(O)=C(C(N)=O)C(=O)[C@@H](N(C)C)[C@@H]3[C@@H](O)[C@@H]21 | 1.08 |
| NCC(N)C(=O)c1ccccc1 (centres undefined) | 0.964 |
| COC(=O)c1c(C)c2c(c(C)c1OC)OC(=O)c1c(C)c(Cl)c(OC)c(Cl)c1O2 | 1.04 |
| CN(C)[C@@H]1C(=O)C(C(N)=O)=C(O)[C@@]2(O)C(=O)C3=C(O)c4c(O)cccc4[C@@](C)(O)[C@H]3[C@H](O)[C@@H]12 | 0.994 |
| CNNC | 1.04 |
| O=c1[nH]c2cc(Cl)ccc2c(O)c1-c1ccc(Oc2ccccc2)cc1 | 0.983 |
| Cc1c(C)c2c(c(C)c1O)CCC(C)(CN1CCN(c3cc(N4CCCC4)nc(N4CCCC4)n3)CC1)O2 (centres undefined) | 1 |
| CC(C)CCCC(C)[C@H]1CCC2C3C(=O)C=C4C[C@@H](O)CC[C@]4(C)C3CC[C@@]21C (some centres undefined) | 1.11 |
| NCCCNCCCCNCCCN | 1.01 |
| COC(=O)c1c(OC)cc2c(c1C)Oc1c(Cl)c(OC(C)=O)c(Cl)c(C)c1C(=O)O2 | 1.03 |
| CCCN(CCc1ccccc1)C1CCc2c(O)cccc2C1 (centres undefined) | 0.997 |
| CCOC(=O)c1ccc(NC(N)=S)cc1 | 0.935 |
| CC1(C)CC2C1CC[C@]1(CBr)CCC3C(CC(=O)O)C(=O)O[C@@]32C1 (some centres undefined) | 1.06 |
| CCCc1c(OCCCCc2nn[nH]n2)ccc(C(C)=O)c1O | 1.01 |
| CN(C)c1ccc(O)c2c1C[C@H]1C[C@H]3[C@H](N(C)C)C(=O)C(C(N)=O)=C(O)[C@@]3(O)C(=O)C1=C2O | 0.879 |

FYI, the data here is from PubChem BioAssay AID1159580.
